- Test system: human PKA catalytic subunit C-alpha mRNA
- assay.overview: Inhibition of PKA catalytic subunit C-alpha mRNA levels in oligonucleotide-treated cells, quantitative real-time PCR
- Assay type: cell-based
- Parameters: concentration or dose not given beside the values
- test.conditions: Table 1, phosphorothioate oligodeoxynucleotides, averages from two experiments
Note to self: % Inhibition of PKA catalytic subunit C-alpha mRNA levels under 50% means class 1, ties and anything higher get class 0.

substance | cat
102563 (antisense CCTTGAACCCCGGGCCGTGG; chemistry not given here) [compound 102563] | class 0
102474 (antisense ATTCTTTCACGCTCTCCTGC; chemistry not given here) [compound 102474] | class 1
102584 (antisense CACACAGGTTGAATCGCCCC; chemistry not given here) [compound 102584] | class 0

The reported measurements were obtained from patent US6248586A.
